Each entry below carries its reported koff.
Molecular target: soluble FGFR2c receptor protein (human, UniProt P21802 148-377)
Sequence (P21802 148-377): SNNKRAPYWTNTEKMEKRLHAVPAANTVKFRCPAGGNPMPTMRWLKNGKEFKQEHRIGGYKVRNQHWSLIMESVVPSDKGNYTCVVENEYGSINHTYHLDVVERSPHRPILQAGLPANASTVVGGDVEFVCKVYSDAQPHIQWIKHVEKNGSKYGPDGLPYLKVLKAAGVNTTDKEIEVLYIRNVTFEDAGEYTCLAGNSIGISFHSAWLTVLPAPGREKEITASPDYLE
Assay: BLI Octet RED96, antibody on anti-hIgG Fc tip
Method: Briefly, the Pall ForteBio Octet RED96 Bio-Layer Interferometry system was used to determine the specificity of anti-FGFR antibodies for FGFR1c, FGFR2c, FGFR3c, and FGFR4. […] The baseline step was followed by an association step of 300 seconds wherein the binding interaction between the immobilized antibodies and soluble receptors was measured. […] Each binding response was measured and reported real time on a sensorgram trace. […]
observable: koff (s⁻¹)

| binder | numeric.result |
| --- | --- |
| Vk3 combined with the VH of Ab15 (antibody, V domains shown, captured on anti-human IgG Fc tips) VH: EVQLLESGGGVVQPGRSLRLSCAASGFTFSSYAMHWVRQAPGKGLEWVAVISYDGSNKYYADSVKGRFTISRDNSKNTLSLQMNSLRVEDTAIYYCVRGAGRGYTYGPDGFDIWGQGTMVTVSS VL: DIVMTQTPLSLSVTPGQPASISCTSSRSLLHSDGKTYVYWYLQKSGQPPQLLIYELSNRFSGVPDRFSGSGSRTDFTLKISRVEAEDVGVYYCMQYIEAPLTFGGGTKVEIK | 0.0022 |
| Vk6 combined with the VH of Ab15 (antibody, V domains shown, captured on anti-human IgG Fc tips) VH: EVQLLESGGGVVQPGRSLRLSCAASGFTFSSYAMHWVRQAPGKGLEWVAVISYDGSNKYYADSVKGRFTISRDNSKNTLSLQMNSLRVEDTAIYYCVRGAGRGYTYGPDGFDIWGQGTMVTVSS VL: DIVMTQTPLSLSVTPGQPASISCKSSQSLLHSDGKTYLYWYLQKPGQPPQLLIYELSNRFSGVPDRFSGSGSGTDFTLKISRVEAEDVGVYYCMQYIEAPLTFGGGTKVEIK | 0.00313 |
| Vk2 combined with the VH of Ab15 (antibody, V domains shown, captured on anti-human IgG Fc tips) VH: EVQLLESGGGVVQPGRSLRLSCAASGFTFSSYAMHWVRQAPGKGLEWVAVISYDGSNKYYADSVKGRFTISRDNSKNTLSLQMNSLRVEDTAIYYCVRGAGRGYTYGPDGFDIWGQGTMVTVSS VL: DIVMTQTPLSLSVTPGQPASISCTSSRSLLHSDGKTYVYWYLQKPGQPPQLLIYELSNRFSGVPDRFSGSGSRTDFTLKISRVEAEDVGVYYCMQYIEAPLTFGGGTKVEIK | 0.00228 |
| Vk11 combined with the VH of Ab15 (antibody, V domains shown, captured on anti-human IgG Fc tips) VH: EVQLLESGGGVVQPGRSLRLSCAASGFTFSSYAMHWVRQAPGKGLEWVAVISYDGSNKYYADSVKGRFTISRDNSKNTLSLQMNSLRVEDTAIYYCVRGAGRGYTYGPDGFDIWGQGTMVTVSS VL: DIVMTQSPLSLPVTPGEPASISCTSSRSLLHSDGKTYVYWYLQKPGQSPQVLIYELSNRFSGVPDRFSGSGSGTDFTLKISRVEAEDVGVYYCMQYIEAPLTFGGGTKVEIK | 0.00231 |
| Vk5 combined with the VH of Ab15 (antibody, V domains shown, captured on anti-human IgG Fc tips) VH: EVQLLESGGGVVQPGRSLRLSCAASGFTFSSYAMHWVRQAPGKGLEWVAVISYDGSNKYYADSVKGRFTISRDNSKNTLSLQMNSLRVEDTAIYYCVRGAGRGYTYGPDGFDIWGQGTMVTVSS VL: DIVMTQTPLSLSVTPGQPASISCRSSRSLLHSDGKTYVYWYLQKPGQPPQLLIYELSNRFSGVPDRFSGSGSGTDFTLKISRVEAEDVGVYYCMQYIEAPLTFGGGTKVEIK | 0.00176 |

Data origin, for the record: patent US20180244785A1
